- System: Myo5 SH3 domain
- Assay Method Text: SPOT analysis of cellulose-bound peptides (WISE), Myo5 SH3 domain (Dataset S4)
- Assay type: binding, Saccharomyces cerevisiae
- Condition Label: SPOT analysis of cellulose-bound peptides probed with Myo5 SH3 domain; normalized value
Assay Readout: The normalized value in BLU units (SPOT analysis, Myo5 SH3) (BLU)
All answers are understood in BLU, so give the number only.

Looking up `KPAVLHYPPIPASA` , I see its The normalized value in BLU units (SPOT analysis, Myo5 SH3) listed as 183.1

Looking up `GEIMFPAPPLPIAN` , I see its The normalized value in BLU units (SPOT analysis, Myo5 SH3) listed as 2774.8

Looking up `EEMGMEEPQAPEAF` , I see its The normalized value in BLU units (SPOT analysis, Myo5 SH3) listed as 127.9

Looking up `HAVLLNPPVAPTAE` , I see its The normalized value in BLU units (SPOT analysis, Myo5 SH3) listed as 227.5

Looking up `PFYTMPDPANPKYS` , I see its The normalized value in BLU units (SPOT analysis, Myo5 SH3) listed as 145.1

Looking up `PAPPPPPPPPPPP` , I see its The normalized value in BLU units (SPOT analysis, Myo5 SH3) listed as 53285

Looking up `LEDALHVPTNPEIL` , I see its The normalized value in BLU units (SPOT analysis, Myo5 SH3) listed as 191.1

Looking up `FLALFSDPARPFLT` , I see its The normalized value in BLU units (SPOT analysis, Myo5 SH3) listed as 451.5

Looking up `TAAELQAPPPPPSS` , I see its The normalized value in BLU units (SPOT analysis, Myo5 SH3) listed as 315.2

Looking up `SPKKLASPRTPNAN` , I see its The normalized value in BLU units (SPOT analysis, Myo5 SH3) listed as 276.2

Looking up `SFTPFNRPSDPSNG` , I see its The normalized value in BLU units (SPOT analysis, Myo5 SH3) listed as 208.5

Looking up `MAKSFADPRVPQPM` , I see its The normalized value in BLU units (SPOT analysis, Myo5 SH3) listed as 172.2

Looking up `QPAQLQEPQEPLST` , I see its The normalized value in BLU units (SPOT analysis, Myo5 SH3) listed as 125.9

Looking up `VPNRWATPLDPSIL` , I see its The normalized value in BLU units (SPOT analysis, Myo5 SH3) listed as 125.7

Looking up `REVDLPIPAQPGPP` , I see its The normalized value in BLU units (SPOT analysis, Myo5 SH3) listed as 114.0

Looking up `NFLKHYLPSSPGDI` , I see its The normalized value in BLU units (SPOT analysis, Myo5 SH3) listed as 172.3

Looking up `ALNNWILPSTPHIQ` , I see its The normalized value in BLU units (SPOT analysis, Myo5 SH3) listed as 169.3

Looking up `SLFPLKTPISPGTS` , I see its The normalized value in BLU units (SPOT analysis, Myo5 SH3) listed as 239.2

Looking up `SPFSLFIPTIPATT` , I see its The normalized value in BLU units (SPOT analysis, Myo5 SH3) listed as 151.7

Looking up `NPGSMSMPGVPTSM` , I see its The normalized value in BLU units (SPOT analysis, Myo5 SH3) listed as 189.7

Looking up `KELIYKQPSGPGLV` , I see its The normalized value in BLU units (SPOT analysis, Myo5 SH3) listed as 79.3

Looking up `FLPVFNLPSNPALF` , I see its The normalized value in BLU units (SPOT analysis, Myo5 SH3) listed as 154.3

Looking up `TLKKFVLPCLPRKN` , I see its The normalized value in BLU units (SPOT analysis, Myo5 SH3) listed as 504.4

Looking up `ALKSLSNPSSPWQQ` , I see its The normalized value in BLU units (SPOT analysis, Myo5 SH3) listed as 30.3

Looking up `DARPFLKPVDPIAL` , I see its The normalized value in BLU units (SPOT analysis, Myo5 SH3) listed as 126.2

Looking up `DFSSYGPPGTPGYD` , I see its The normalized value in BLU units (SPOT analysis, Myo5 SH3) listed as 108.5

Looking up `ILVAYGLPVSPDEK` , I see its The normalized value in BLU units (SPOT analysis, Myo5 SH3) listed as 166.6

Looking up `KPPSYPSPVQPPQS` , I see its The normalized value in BLU units (SPOT analysis, Myo5 SH3) listed as 16459.5

Looking up `APKYYVPPGIPTND` , I see its The normalized value in BLU units (SPOT analysis, Myo5 SH3) listed as 10351.6
